Cited source: ChEMBL document CHEMBL4308831

Target: UniProt:P32245
Sequence (P32245 whole entry): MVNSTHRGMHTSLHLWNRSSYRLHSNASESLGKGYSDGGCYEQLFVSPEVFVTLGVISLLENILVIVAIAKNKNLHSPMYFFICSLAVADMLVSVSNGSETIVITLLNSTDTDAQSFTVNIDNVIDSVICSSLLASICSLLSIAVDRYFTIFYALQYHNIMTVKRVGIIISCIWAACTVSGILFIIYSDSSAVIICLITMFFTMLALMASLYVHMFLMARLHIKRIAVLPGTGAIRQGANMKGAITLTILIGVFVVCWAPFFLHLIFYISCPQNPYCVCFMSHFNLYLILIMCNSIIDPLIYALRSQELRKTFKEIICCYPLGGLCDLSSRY
Assay: Agonist activity at human FLAG-tagged MC4R expressed in HTLA cells assessed as induction of beta-arrestin recruitment at 10 uM after 18 hrs by Presto-tango assay relative to NDP-MSH
Type: cell-based
Non-standard residues stand in square brackets, D forms with d. Residues, ends and D or L forms follow the SMILES beside them. d2Nal = N[C@H](Cc1ccc2ccccc2c1)C(=O)O
quantity-kind: Activity (%)
Numbers only here, please. The scale is %.

Query block: Field request: Activity | item: CC(=O)N[C@@H](Cc1c[nH]cn1)C(=O)N[C@H](Cc1ccc2ccccc2c1)C(=O)N[C@@H](CCCN=C(N)N)C(=O)N[C@@H](Cc1c[nH]c2ccccc12)C(N)=O
Result block: 30

Query block: I have this compound here, CC(=O)N[C@@H](Cc1cnc[nH]1)C(=O)N[C@H](Cc1ccc2ccccc2c1)C(=O)N[C@@H](CCCNC(=N)N)C(=O)N[C@@H](Cc1c[nH]c2ccccc12)C(=O)NCCCOCCOCCOCCCNC(=O)COCC(=O)NCCCOCCOCCOCCCNC(=O)COCC(=O)N[C@@H](Cc1cnc[nH]1)C(=O)N[C@H](Cc1ccccc1)C(=O)N[C@@H](CCCNC(=N)N)C(=O)N[C@@H](Cc1c[nH]c2ccccc12)C(N)=O , and I need its recorded Activity.
Result block: 25

Query block: Quick check: Activity of CC(=O)N[C@@H](Cc1cnc[nH]1)C(=O)N[C@H](Cc1ccc2ccccc2c1)C(=O)N[C@@H](CCCNC(=N)N)C(=O)N[C@@H](Cc1c[nH]c2ccccc12)C(=O)N1CCC[C@H]1C(=O)NCC(=O)N1CCC[C@H]1C(=O)NCC(=O)N1CCC[C@H]1C(=O)NCC(=O)N1CCC[C@H]1C(=O)NCC(=O)N1CCC[C@H]1C(=O)NCC(=O)N1CCC[C@H]1C(=O)NCC(N)=O (Ac-H[d2Nal]RWPGPGPGPGPGPG-NH2) ?
Result block: 30
